As shown below, each of these molecules has a reported inhibition value.
Assay: TEAD-YAP interaction inhibition, primary screen, TEAD-YAP interaction inhibitor project, luminescence, HEK-TIYL cells (AID 1259422);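 further: 0% = median of test compound wells and 100% = reference inhibitor wells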
Details: TEAD-Gal4/YAP UAS-luciferase luminescence, at 9.12 µM, stronger effect = higher value
The whole screen tested about 640,000 compounds, of which about 9,300 (1.5%) were called active. Many of the other results were omitted from the sample, so actives are more common in it than they were.
Report the value in % with no unit label.

Some solved cases for reference:
                                   molecule  value_measured
0  O=C(c1nc2ccc(Cl)cn2c1CNCCn1cccn1)N1CCc2ccccc2C1            7.89
1  CCCOc1ccc(/C(O)=C2/C(=O)C(=O)N(CCN(C)C)C2c2ccc(Cl)cc2)cc1C (stereo not given)            4.59

# inhibition (molecule: `N=C1C(c2nc3ccccc3s2)=C(O)CN1c1cccc(F)c1` ) is 31.9

get_value(item= `O=C(NC1(c2ccc3c(c2)OCO3)CCCC1)c1cscn1` , readout=inhibition) returns 5.97

Reported inhibition for `Cc1ccc2cc(CN(CCCO)S(=O)(=O)c3ccccc3[N+](=O)[O-])c(=O)[nH]c2c1` was -39.4

For reference, reported inhibition for `Cc1ncc(-c2ccncn2)c(-c2ccc(C(F)(F)F)nc2)n1` stands at 6.09

Briefly, inhibition measured for O=C(O)C(CCC(=O)N1CCOCC1)N1C(=O)c2ccccc2C1=O (stereo not given) : -9.92

----------
Assay: TEAD-YAP interaction inhibition, primary screen, TEAD-YAP interaction inhibitor project, luminescence, HEK-TIYL cells (AID 1259422);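 further: 0% = median of test compound wells and 100% = reference inhibitor wells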
Conditions: TEAD-Gal4/YAP UAS-luciferase luminescence, at 9.12 µM
The whole screen tested about 640,000 compounds, of which about 9,300 (1.5%) were called active. Rule as the data show it: active = inhibition above about 32%; inactive = the rest. The entries come from a sample that favours actives as a whole.
Please reply with one of these outcomes: active, inactive

>>> print(df.to_string())
                                   molecule  assigned_label
0  CCN(CC)C(=O)C1CCCN(c2cc(NCc3ccccc3)ncn2)C1 (configuration not stated)        inactive
1  CCOC(=O)c1c(NC(=O)c2cc(OC)c(OC)c(OC)c2)sc(C(=O)N2CCCC2)c1C        inactive
2  CN1CCN(c2ncnc3c2c(-c2ccccc2)cn3-c2ccccc2)CC1        inactive

Enquiry: Assay outcome for `N#Cc1ccc(-c2csc(NC(=O)c3cc([N+](=O)[O-])ccc3Cl)n2)cc1` : what was it?
Return: inactive

Enquiry: # outcome recorded in this test, key = `CCOc1ccc(-n2c(SCc3cc(C(C)=O)ccc3OC)nc3c(sc(=S)n3-c3ccccc3)c2=O)cc1`
Return: inactive

Enquiry: How did this test come out for `Cc1ccc(Nc2cc(C(=O)O)c3ccccc3n2)cc1` ?
Return: inactive

Enquiry: Could you please tell me the result logged for CCN(CC)C(=O)C1CCCN(c2ncnc3c2c(-c2ccccc2)cn3-c2cccc(Cl)c2)C1 (configuration not stated) in this assay?
Return: inactive

Enquiry: Look up the recorded call for `CCCCNC(=O)NNC(=O)CSc1nc2ccccc2s1` in this test.
Return: inactive

Enquiry: How was `Cc1ccc2cccc(NC(=O)c3cc4ccccc4o3)c2n1` classified in this test?
Return: inactive

Enquiry: Outcome logged for `CC(C)n1cnc2c(NCCOc3ccccc3)nc(-c3ccc(C(=O)NC4CC4)cc3)nc21` in this assay:
Return: inactive

Enquiry: // outcome(item) with item = `O=C(CN(c1ccc(Cl)cc1Cl)S(=O)(=O)c1ccccc1)Nc1ccc(Cl)c(Cl)c1`
Return: inactive

Enquiry: Which outcome did this test record for the molecule `O=C(Nc1nc(-c2ccc(F)cc2)cs1)c1ccc([N+](=O)[O-])cc1` ?
Return: inactive
